experiment: Rat plasma pharmacokinetics after single-dose vehicle/SLE and digoxin or GE; format: in vivo, Sprague-Dawley rats; conditions: female, Sprague-Dawley, rat, plasma, po, rats, control: single vehicle, 2 h later digoxin 0.5 mg/kg or GE 120 mg/kg ig; read-out: Tmax
recorded endpoint: Tmax (h)
Answer with a number only, understood to be in h.

Q: Field request: Tmax | item: C[C@H]1O[C@@H](O[C@H]2[C@@H](O)C[C@H](O[C@H]3[C@@H](O)C[C@H](O[C@H]4CC[C@@]5(C)[C@H](CC[C@@H]6[C@@H]5C[C@@H](O)[C@]5(C)[C@@H](C7=CC(=O)OC7)CC[C@]65O)C4)O[C@@H]3C)O[C@@H]2C)C[C@H](O)[C@@H]1O [Digoxin, digoxin, reference compound]
Ans: 1.28
